- protocol-text: Single-dose and steady-state serum pharmacokinetics in the murine model
- Type: in vivo, mice
- setup-conditions: mouse, serum, po, 130 mg/kg, serum, Day 24, LZD 130 mg/kg daily oral; read-out: AUC0-24 (steady state AUC)
property: AUC(0-t)

compound	result
CC(=O)NC[C@H]1CN(c2ccc(N3CCOCC3)c(F)c2)C(=O)O1	379 µg·h/mL

----------
- protocol-text: Single-dose and steady-state serum pharmacokinetics in the murine model
- Format: in vivo, mice
- setup-conditions: mouse, in vivo, po, 100 mg/kg, AUC0-24
property: AUC(0-t) (ng·h/mL)

compound	readout-number
CC(=O)NC[C@H]1CN(c2ccc(N3CCSCC3)c(F)c2)C(=O)O1	7330
